Hello, the source for this data is ChEMBL document CHEMBL3870336, in case you need it.

# measurement_target: Voltage-gated inwardly rectifying potassium channel KCNH2 (Homo sapiens, UniProt Q12809)
# Sequence (Q12809 whole entry): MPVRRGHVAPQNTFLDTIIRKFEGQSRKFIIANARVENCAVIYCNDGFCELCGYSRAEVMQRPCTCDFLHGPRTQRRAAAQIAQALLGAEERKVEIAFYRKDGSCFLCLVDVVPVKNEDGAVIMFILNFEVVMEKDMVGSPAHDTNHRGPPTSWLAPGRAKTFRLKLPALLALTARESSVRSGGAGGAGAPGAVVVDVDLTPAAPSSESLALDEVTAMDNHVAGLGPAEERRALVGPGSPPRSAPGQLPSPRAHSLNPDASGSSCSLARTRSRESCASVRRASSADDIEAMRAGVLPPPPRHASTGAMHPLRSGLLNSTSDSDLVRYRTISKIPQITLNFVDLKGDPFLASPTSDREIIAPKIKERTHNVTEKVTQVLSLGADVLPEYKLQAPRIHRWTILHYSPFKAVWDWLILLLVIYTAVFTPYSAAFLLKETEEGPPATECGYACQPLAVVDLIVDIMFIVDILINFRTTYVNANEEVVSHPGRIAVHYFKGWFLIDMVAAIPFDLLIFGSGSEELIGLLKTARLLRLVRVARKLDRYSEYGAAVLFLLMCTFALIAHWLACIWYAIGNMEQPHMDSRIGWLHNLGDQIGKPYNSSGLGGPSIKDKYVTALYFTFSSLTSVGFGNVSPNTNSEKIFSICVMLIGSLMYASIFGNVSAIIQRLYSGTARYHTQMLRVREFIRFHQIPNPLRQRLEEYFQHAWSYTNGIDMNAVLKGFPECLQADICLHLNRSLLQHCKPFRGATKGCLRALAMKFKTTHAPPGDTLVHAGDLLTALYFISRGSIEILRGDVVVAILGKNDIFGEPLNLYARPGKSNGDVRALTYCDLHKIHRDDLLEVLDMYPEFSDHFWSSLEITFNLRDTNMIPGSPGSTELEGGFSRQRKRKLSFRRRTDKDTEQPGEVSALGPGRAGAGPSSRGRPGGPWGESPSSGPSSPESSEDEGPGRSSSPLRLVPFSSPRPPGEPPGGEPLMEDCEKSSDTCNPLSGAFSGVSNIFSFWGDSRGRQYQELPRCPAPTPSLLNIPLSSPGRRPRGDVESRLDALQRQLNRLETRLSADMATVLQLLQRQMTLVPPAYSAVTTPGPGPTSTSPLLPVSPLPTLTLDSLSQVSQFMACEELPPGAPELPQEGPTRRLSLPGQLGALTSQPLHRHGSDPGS
# measurement_description: Displacement of [3H]-dofetilide from human ERG expressed in CHOK1 cell membranes incubated for 4 hrs in dark by luminescent assay
pIC50: −log10 of the molar value.
Quick rule for you: pIC50 at 5 or higher means T, lower means F.

**Q:** Is the recorded value of pIC50 equal to or greater than 5 for this molecule? c1cnc2c(N3CCN(CCCc4ccc(OCCCN5CCCCCC5)cc4)CC3)cccc2c1
**A:** T

**Q:** Is the recorded value of pIC50 equal to or greater than 5 for this molecule? O=C(O)c1cnc2c(N3CCN(CCc4ccc(OCCCN5CCCCCC5)cc4)CC3)cccc2c1
**A:** F

**Q:** Is the recorded value of pIC50 equal to or greater than 5 for this molecule? O=C(O)CCc1ccc2cc(Cc3ccccc3)cc(N3CCN(CCc4ccc(OCCCN5CCCCCC5)cc4)CC3)c2n1
**A:** T

**Q:** Is the recorded value of pIC50 equal to or greater than 5 for this molecule? O=C(O)CCc1ccc2cccc(N3CCN(CCc4ccc(OCCCN5CCCCCC5)cc4)CC3)c2n1
**A:** F

**Q:** Is the recorded value of pIC50 equal to or greater than 5 for this molecule? CCCCc1cc(N2CCN(CCc3ccc(OCCCN4CCCCCC4)cc3)CC2)c2nc(CCC(=O)O)ccc2c1
**A:** T

**Q:** Is the recorded value of pIC50 equal to or greater than 5 for this molecule? O=C(O)c1cc(N2CCN(CCc3ccc(OCCCN4CCCCCC4)cc3)CC2)c2ncccc2c1
**A:** F

**Q:** Is the recorded value of pIC50 equal to or greater than 5 for this molecule? O=C(O)/C=C/c1ccc2cccc(N3CCN(CCc4ccc(OCCCN5CCCCCC5)cc4)CC3)c2n1
**A:** F

**Q:** Is the recorded value of pIC50 equal to or greater than 5 for this molecule? O=C(O)CCc1cnc2c(N3CCN(CCc4ccc(OCCCN5CCCCCC5)cc4)CC3)cccc2c1
**A:** F

**Q:** Is the recorded value of pIC50 equal to or greater than 5 for this molecule? c1cnc2c(N3CCN(CCCCc4ccc(OCCCN5CCCCCC5)cc4)CC3)cccc2c1
**A:** T

**Q:** Is the recorded value of pIC50 equal to or greater than 5 for this molecule? O=C(O)c1ccnc2c(N3CCN(CCc4ccc(OCCCN5CCCCCC5)cc4)CC3)cccc12
**A:** F

----------
# measurement_target: Histamine H1 receptor (Homo sapiens, UniProt P35367)
# Sequence (P35367 whole entry): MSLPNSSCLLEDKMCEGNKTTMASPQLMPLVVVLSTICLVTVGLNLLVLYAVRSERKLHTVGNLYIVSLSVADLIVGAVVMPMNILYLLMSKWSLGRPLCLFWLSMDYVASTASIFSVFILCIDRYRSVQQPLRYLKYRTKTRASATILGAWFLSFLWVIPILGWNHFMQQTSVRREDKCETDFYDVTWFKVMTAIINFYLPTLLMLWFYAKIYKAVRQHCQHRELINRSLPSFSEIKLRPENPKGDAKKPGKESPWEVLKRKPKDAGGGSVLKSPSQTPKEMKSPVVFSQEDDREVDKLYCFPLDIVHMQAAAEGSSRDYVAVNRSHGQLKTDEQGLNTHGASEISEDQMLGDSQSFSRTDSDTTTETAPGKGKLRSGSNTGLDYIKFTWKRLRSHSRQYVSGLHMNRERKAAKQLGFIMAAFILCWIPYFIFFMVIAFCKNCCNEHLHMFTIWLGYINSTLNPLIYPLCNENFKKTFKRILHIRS
# measurement_description: Antagonist activity at human Histamine H1 receptor expressed in CHO cells assessed as inhibition of histamine-induced calcium flux preincubated for 30 mins followed by histamine addition by Fluo-4-AM dye based FLIPR assay
Please respond with reported Ki for every item in the list.
API: value field is a number in nM; no unit string.

**Q:** Please supply the value of reported Ki for the item c1cnc2c(N3CCN(CCCCc4ccc(OCCCN5CCCCCC5)cc4)CC3)cccc2c1
**A:** 15.8

**Q:** Please supply the value of reported Ki for the item O=C(O)CCc1ccc2cc(Cc3ccccc3)cc(N3CCN(CCc4ccc(OCCCN5CCCCCC5)cc4)CC3)c2n1
**A:** 25.1

**Q:** Please supply the value of reported Ki for the item O=C(O)CCc1cnc2c(N3CCN(CCc4ccc(OCCCN5CCCCCC5)cc4)CC3)cccc2c1
**A:** 39.8

**Q:** Please supply the value of reported Ki for the item O=C(O)c1ccc2cccc(N3CCN(CCc4ccc(OCCCN5CCCCCC5)cc4)CC3)c2n1
**A:** 251

----------
# measurement_target: Alpha-1B adrenergic receptor (Homo sapiens, UniProt P35368)
# Sequence (P35368 whole entry): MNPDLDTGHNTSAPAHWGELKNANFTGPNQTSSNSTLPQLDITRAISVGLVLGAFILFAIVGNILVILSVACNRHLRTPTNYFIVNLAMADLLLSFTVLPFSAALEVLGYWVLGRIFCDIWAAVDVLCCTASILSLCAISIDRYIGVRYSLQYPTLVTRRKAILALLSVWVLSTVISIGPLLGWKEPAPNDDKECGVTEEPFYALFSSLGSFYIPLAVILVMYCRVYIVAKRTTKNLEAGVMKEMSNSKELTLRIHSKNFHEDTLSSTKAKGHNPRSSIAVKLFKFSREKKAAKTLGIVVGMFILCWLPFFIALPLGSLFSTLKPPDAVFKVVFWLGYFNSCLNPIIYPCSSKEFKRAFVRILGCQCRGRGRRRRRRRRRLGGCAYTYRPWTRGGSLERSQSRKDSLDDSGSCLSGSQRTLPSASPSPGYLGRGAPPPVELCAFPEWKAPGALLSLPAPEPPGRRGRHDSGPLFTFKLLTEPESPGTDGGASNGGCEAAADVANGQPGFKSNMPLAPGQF
# measurement_description: Antagonist activity at adrenergic alpha1B receptor (unknown origin) expressed in Rat1 cells assessed as inhibition of phenylephrine-induced Ca2+ flux preincubated for 30 mins followed by phenylephrine addition by Fluo-4-AM-dye based FLIPR assay
Please respond with reported Ki for every item in the list.

**Q:** Please supply the value of reported Ki for the item O=C(O)c1ccnc2c(N3CCN(CCc4ccc(OCCCN5CCCCCC5)cc4)CC3)cccc12
**A:** > 2000 nM

**Q:** Please supply the value of reported Ki for the item O=C(O)c1ccc2cccc(N3CCN(CCc4ccc(OCCCN5CCCCCC5)cc4)CC3)c2n1
**A:** > 2000 nM

**Q:** Please supply the value of reported Ki for the item O=C(O)c1cnc2c(N3CCN(CCc4ccc(OCCCN5CCCCCC5)cc4)CC3)cccc2c1
**A:** > 2000 nM
